- Organism: Homo sapiens
- Protocol summary: Selectivity ratio of Ki for human adenosine A2A receptor to Ki for human adenosine A3 receptor
For each record, write down the corresponding Selectivity ratio.
// keep it numeric: no unit symbol after the value

Reported Selectivity ratio for `CCOC(=O)c1c(NC(=O)c2sc(Nc3ccccc3)nc2N(C)C)sc2c1CCCC2` was 1.6

Briefly, Selectivity ratio measured for `CCOC(=O)c1c(NC(=O)c2sc(Nc3ccc(C)cc3)nc2C)sc(C(=O)OC)c1C` : 0.33

Entry `CCOC(=O)c1c(NC(=O)c2sc(Nc3ccc(C)cc3)nc2N(C)C)sc(C(=O)OC)c1C` , Selectivity ratio reported as 6.8

###

Task for the reader: assign each of the following compounds its reported Ki.
Sequence of the target: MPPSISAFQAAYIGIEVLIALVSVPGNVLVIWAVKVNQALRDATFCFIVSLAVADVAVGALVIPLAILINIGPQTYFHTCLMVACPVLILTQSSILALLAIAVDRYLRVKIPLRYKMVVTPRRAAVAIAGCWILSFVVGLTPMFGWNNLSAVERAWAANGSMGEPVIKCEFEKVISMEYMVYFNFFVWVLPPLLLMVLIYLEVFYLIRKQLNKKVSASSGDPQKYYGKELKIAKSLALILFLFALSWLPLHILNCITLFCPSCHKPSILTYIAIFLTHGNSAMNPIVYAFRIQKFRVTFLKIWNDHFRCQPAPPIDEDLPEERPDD

Lookup result for `CCOC(=O)c1c(NC(=O)c2sc(Nc3ccc(C)cc3)nc2C)sc2c1CCCC2` ; measured Ki: > 30 µM

For record `CCOC(=O)c1c(NC(=O)c2sc(Nc3ccc(C)cc3)nc2N(C)C)sc(C(=O)OC)c1C` the listed Ki is 19 µM

Data point: `CCOC(=O)c1c(NC(=O)c2sc(Nc3ccc(OC)cc3)nc2N(C)C)sc(C(=O)OC)c1C` ; Ki = 14 µM

Ki recorded for this compound, `CCOC(=O)c1c(NC(=O)c2sc(Nc3ccc(C)cc3)nc2C)sc(C(=O)OC)c1C` , is > 30 µM

Input `Cc1ccc(Nc2nc(-c3ccc(C)cc3)c(C(=O)Nc3sc4c(c3C(N)=O)CCCC4)s2)cc1` . Output Ki: > 30 µM

###

- Target: Adenosine receptor A2a (Homo sapiens, UniProt P29274)
- Sequence (P29274 whole entry): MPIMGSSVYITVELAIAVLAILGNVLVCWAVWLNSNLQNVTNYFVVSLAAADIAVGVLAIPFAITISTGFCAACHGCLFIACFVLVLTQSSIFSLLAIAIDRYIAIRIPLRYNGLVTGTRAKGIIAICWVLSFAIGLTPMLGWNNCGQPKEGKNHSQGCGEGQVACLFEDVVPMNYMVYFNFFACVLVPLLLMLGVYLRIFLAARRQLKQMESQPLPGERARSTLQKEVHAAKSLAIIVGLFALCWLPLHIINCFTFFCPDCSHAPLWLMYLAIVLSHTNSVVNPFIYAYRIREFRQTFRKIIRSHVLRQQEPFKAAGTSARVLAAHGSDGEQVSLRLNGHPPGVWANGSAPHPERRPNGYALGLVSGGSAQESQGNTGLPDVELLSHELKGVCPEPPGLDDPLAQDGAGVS
What Ki was measured for each of the following?
I only need the number, in µM, no unit after it.

// sample `CCOC(=O)c1c(NC(=O)c2sc(Nc3ccccc3)nc2N(C)C)sc2c1CCCC2` , its Ki was 6.45

Memo: `CCOC(=O)c1c(NC(=O)c2sc(Nc3ccc(OC)cc3)nc2N(C)C)sc(C(=O)OC)c1C` , reported Ki: 9.66

In plain terms, `Cc1ccc(-c2nc(Nc3ccccc3)sc2C(=O)Nc2sc3c(c2C(N)=O)CCCC3)cc1` has a documented Ki of 3.44

Entry under test: `CCOC(=O)c1c(NC(=O)c2sc(Nc3ccccc3)nc2-c2ccc(C)cc2)sc2c1CCCC2` . Its Ki was 28.4
